- target.entity: T1, human GIP receptor (human, UniProt P48546 22-466)
- T1 sequence (looked up): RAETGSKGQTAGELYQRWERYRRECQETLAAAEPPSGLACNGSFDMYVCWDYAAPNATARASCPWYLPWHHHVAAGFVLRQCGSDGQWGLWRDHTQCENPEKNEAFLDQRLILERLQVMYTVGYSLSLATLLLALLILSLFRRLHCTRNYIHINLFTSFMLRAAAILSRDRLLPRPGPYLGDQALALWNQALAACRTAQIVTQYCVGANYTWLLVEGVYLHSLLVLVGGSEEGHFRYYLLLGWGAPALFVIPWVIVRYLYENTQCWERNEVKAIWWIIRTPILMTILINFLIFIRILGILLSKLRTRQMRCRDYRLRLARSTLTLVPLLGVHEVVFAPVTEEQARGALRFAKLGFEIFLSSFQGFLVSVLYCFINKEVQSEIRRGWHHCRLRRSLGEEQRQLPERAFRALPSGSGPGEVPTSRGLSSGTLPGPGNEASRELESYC
- procedure.text: cell-based or functional assay
Positions of bridges follow the written chain, without caps; N, C: chain ends. Non-standard residues stand in square brackets, D forms with d. No end group written: not given here. *: point of attachment. Acetyl(2-(4-imidazolyl)) = O=C(Cc1c[nH]cn1)*; Aib = CC(C)(N)C(=O)O
Kindly supply the reported In vitro activity (%) compared with native peptide: vs GIP values for the records listed here.

[in] Need In vitro activity (%) compared with native peptide: vs GIP, item H[Aib]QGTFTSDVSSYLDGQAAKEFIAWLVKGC (not fully specified) [triple agonist of SEQ ID NO: 1]
[out] < 0.1%

[in] Need In vitro activity (%) compared with native peptide: vs GIP, item H[Aib]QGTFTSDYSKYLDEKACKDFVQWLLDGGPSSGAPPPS (bridge 16-20; not fully specified) [triple agonist of SEQ ID NO: 32]
[out] 8.8%

[in] Need In vitro activity (%) compared with native peptide: vs GIP, item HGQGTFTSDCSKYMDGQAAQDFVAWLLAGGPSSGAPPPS (ends and bridges not checked) [triple agonist of SEQ ID NO: 45]
[out] < 0.1%

[in] Need In vitro activity (%) compared with native peptide: vs GIP, item H[Aib]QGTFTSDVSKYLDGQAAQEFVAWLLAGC (not fully specified) [triple agonist of SEQ ID NO: 9]
[out] < 0.1%

[in] Need In vitro activity (%) compared with native peptide: vs GIP, item H[Aib]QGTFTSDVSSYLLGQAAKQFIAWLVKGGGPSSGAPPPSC (not fully specified) [triple agonist of SEQ ID NO: 3]
[out] < 0.1%

[in] Need In vitro activity (%) compared with native peptide: vs GIP, item {Acetyl(2-(4-imidazolyl))}-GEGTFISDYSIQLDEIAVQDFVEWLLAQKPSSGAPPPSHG (not fully specified; also: ring from underlined residues, positions not shown) [triple agonist of SEQ ID NO: 13]
[out] < 0.1%

[in] Need In vitro activity (%) compared with native peptide: vs GIP, item H[Aib]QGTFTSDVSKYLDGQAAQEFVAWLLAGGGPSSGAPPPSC (not fully specified) [triple agonist of SEQ ID NO: 10]
[out] < 0.1%

[in] Need In vitro activity (%) compared with native peptide: vs GIP, item H[Aib]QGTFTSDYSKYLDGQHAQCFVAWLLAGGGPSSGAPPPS (also: ring from underlined residues, positions not shown) [triple agonist of SEQ ID NO: 39]
[out] < 0.1%

[in] Need In vitro activity (%) compared with native peptide: vs GIP, item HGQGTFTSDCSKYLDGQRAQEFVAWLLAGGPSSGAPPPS (ends and bridges not checked) [triple agonist of SEQ ID NO: 47]
[out] < 0.1%

[in] Need In vitro activity (%) compared with native peptide: vs GIP, item H[Aib]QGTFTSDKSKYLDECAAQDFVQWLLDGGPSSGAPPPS (not fully specified) [triple agonist of SEQ ID NO: 41]
[out] < 0.1%

[in] Need In vitro activity (%) compared with native peptide: vs GIP, item {Acetyl(2-(4-imidazolyl))}-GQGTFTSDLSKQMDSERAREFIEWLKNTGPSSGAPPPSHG (not fully specified; also: ring from underlined residues, positions not shown) [triple agonist of SEQ ID NO: 18]
[out] < 0.1%

[in] Need In vitro activity (%) compared with native peptide: vs GIP, item H[Aib]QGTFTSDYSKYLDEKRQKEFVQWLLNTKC (bridge 16-20; not fully specified) [triple agonist of SEQ ID NO: 58]
[out] 0.2%

[in] Need In vitro activity (%) compared with native peptide: vs GIP, item {Acetyl(2-(4-imidazolyl))}-[Aib]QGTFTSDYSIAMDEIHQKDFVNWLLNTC (bridge 15-19; not fully specified) [triple agonist of SEQ ID NO: 87]
[out] < 0.1%

[in] Need In vitro activity (%) compared with native peptide: vs GIP, item Y[Aib]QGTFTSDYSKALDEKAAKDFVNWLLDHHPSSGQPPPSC (bridge 16-20; not fully specified) [triple agonist of SEQ ID NO: 99]
[out] 57.7%

[in] Need In vitro activity (%) compared with native peptide: vs GIP, item Y[Aib]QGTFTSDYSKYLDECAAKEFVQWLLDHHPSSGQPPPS (bridge 16-20; not fully specified) [triple agonist of SEQ ID NO: 64]
[out] 92.9%

[in] Need In vitro activity (%) compared with native peptide: vs GIP, item {Acetyl(2-(4-imidazolyl))}-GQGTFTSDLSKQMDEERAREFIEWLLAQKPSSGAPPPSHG (not fully specified; also: ring from underlined residues, positions not shown) [triple agonist of SEQ ID NO: 17]
[out] < 0.1%

[in] Need In vitro activity (%) compared with native peptide: vs GIP, item H[Aib]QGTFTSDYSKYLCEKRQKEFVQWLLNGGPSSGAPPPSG (bridge 16-20) [triple agonist of SEQ ID NO: 36]
[out] 0.2%

[in] Need In vitro activity (%) compared with native peptide: vs GIP, item Y[Aib]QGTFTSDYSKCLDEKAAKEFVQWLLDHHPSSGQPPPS (bridge 16-20; not fully specified) [triple agonist of SEQ ID NO: 68]
[out] 107%
